target: wild type B-Raf (Homo sapiens (Human), UniProt P15056)
Sequence (P15056 whole entry): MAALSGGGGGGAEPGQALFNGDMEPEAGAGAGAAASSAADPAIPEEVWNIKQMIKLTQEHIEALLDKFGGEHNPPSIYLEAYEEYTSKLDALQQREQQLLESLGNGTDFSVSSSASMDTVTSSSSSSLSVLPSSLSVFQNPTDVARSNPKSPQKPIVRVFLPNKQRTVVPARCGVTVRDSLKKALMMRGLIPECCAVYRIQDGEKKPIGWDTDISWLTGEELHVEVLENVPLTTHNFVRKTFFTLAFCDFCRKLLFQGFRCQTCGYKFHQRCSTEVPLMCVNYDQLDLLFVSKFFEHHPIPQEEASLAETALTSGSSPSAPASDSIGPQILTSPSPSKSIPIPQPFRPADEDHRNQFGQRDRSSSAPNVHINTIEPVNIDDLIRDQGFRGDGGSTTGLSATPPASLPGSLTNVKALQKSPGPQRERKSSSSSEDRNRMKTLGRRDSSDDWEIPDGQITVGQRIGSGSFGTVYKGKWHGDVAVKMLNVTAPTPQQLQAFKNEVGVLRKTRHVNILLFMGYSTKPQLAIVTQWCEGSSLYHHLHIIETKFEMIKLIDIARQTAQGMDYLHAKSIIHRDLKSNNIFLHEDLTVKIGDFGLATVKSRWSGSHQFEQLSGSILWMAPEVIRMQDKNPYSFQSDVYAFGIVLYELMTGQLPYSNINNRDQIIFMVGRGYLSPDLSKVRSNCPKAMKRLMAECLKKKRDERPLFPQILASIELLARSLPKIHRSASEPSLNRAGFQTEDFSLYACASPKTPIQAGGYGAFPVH
experiment_summary: WT BRaf IC50 assay, TR-FRET
Type: biochemical
Parameters: scale not given here
experimental_context: at 100 nM compound, Km ATP
I'd be grateful if you could share measured Braf-WT Km ATP, % at 100 nM for these entries.
State just the number; it will be interpreted in % at 100 nM.

input: Notebook entry, wild type B-Raf (Homo sapiens (Human), UniProt P15056) assay: Braf-WT Km ATP, % at 100 nM of "O=C1CCc2c(Oc3ccc4c(c3)[C@H]3[C@H](NC(=O)c5ccc(F)c(F)c5)[C@H]3O4)ccnc2N1" = ?
output: 100

input: Notebook entry, wild type B-Raf (Homo sapiens (Human), UniProt P15056) assay: Braf-WT Km ATP, % at 100 nM of "O=C1CCc2c(Oc3ccc4c(c3)[C@H]3[C@H](NC(=O)c5cc(C(F)(F)F)ccn5)[C@H]3O4)ccnc2N1" = ?
output: 101

input: Notebook entry, wild type B-Raf (Homo sapiens (Human), UniProt P15056) assay: Braf-WT Km ATP, % at 100 nM of "O=C1CCc2c(Oc3ccc4c(c3)[C@H]3[C@H](NC(=O)c5ccccc5C(F)(F)F)[C@H]3O4)ccnc2N1" = ?
output: 93

---

I'd be grateful if you could share measured log10 IC50 for these entries.
target: B-Raf (V600E) (Homo sapiens (Human), UniProt P15056, V600E)
Sequence (P15056 whole entry V600E): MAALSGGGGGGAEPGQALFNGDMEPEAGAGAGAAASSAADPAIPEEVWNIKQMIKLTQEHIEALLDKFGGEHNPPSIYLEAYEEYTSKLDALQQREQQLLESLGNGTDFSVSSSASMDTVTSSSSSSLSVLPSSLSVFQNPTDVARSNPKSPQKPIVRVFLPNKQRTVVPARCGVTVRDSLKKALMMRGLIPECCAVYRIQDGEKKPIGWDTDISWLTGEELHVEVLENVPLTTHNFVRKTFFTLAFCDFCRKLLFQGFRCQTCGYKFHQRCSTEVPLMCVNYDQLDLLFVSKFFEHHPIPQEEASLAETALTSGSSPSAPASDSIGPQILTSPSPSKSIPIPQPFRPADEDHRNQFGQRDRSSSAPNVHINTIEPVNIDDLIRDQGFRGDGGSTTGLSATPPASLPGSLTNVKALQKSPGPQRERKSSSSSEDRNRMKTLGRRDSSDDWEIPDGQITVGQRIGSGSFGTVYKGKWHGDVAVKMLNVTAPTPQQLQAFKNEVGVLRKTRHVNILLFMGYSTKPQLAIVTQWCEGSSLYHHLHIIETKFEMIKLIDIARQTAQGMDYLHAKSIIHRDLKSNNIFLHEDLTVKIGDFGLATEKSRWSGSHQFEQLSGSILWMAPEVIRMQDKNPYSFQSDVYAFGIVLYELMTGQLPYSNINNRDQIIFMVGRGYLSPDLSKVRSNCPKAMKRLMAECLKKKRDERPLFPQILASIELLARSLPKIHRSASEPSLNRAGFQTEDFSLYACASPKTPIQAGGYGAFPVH
experiment_summary: Raf IC50 assay, TR-FRET, B-Raf (V600E)
experimental_context: 0.1 mM ATP; read-out: IC50 BRAF-V600E
Please note: log10 values; quantity IC50; unit nM.

input: What log10 IC50 value was documented for this compound, CC1CN(Cc2ccc(C(=O)N[C@@H]3[C@H]4Oc5ccc(Oc6ccnc7c6CCC(=O)N7)cc5[C@@H]34)cc2C(F)(F)F)CC(C)N1 (stereo partly shown) ?
output: 0.91

input: What log10 IC50 value was documented for this compound, "O=C1CCc2c(Oc3ccc4c(c3)[C@H]3[C@H](NC(=O)c5ccc(C(F)(F)F)c(F)c5)[C@H]3O4)ccnc2N1" ?
output: 0.96

input: What log10 IC50 value was documented for this compound, "CCN1CCN(Cc2ccc(C(=O)N[C@@H]3[C@H]4Oc5ccc(Oc6ccnc7c6CNC(=O)N7)cc5[C@@H]34)cc2C(F)(F)F)CC1" ?
output: 1.23

input: What log10 IC50 value was documented for this compound, "O=C1CCc2c(Oc3ccc4c(c3)[C@H]3[C@H](NC(=O)c5ccnc(C(F)(F)F)c5)[C@H]3O4)ccnc2N1" ?
output: 0.18

input: What log10 IC50 value was documented for this compound, "O=C1CCc2c(Oc3ccc4c(c3)[C@H]3[C@H](NC(=O)c5ccc(CN6CCCCC6)c(C(F)(F)F)c5)[C@H]3O4)ccnc2N1" ?
output: 1.61

input: What log10 IC50 value was documented for this compound, "O=C1CCc2c(Oc3ccc4c(c3)[C@H]3[C@H](NC(=O)c5ccc(F)c(F)c5)[C@H]3O4)ccnc2N1" ?
output: 0.08

input: What log10 IC50 value was documented for this compound, "CCN1CCN(Cc2ccc(C(=O)N[C@@H]3[C@H]4Oc5ccc(Oc6ccnc7c6CCC(=O)N7)cc5[C@@H]34)cc2OC)CC1" ?
output: 0.84

input: What log10 IC50 value was documented for this compound, "CCCCCCCC(=O)N[C@@H]1[C@H]2Oc3ccc(Oc4ccnc5c4CCC(=O)N5)cc3[C@@H]12" ?
output: 0.30

input: What log10 IC50 value was documented for this compound, "CC(C)(N)c1cc(C(=O)N[C@@H]2[C@H]3Oc4ccc(Oc5ccnc6c5CCC(=O)N6)cc4[C@@H]23)cc(C(F)(F)F)c1" ?
output: -0.15

input: What log10 IC50 value was documented for this compound, "O=C1CCc2c(Oc3ccc4c(c3)[C@H]3[C@H](NC(=O)c5ccc(CN6CCn7c(nnc7C(F)(F)F)C6)c(C(F)(F)F)c5)[C@H]3O4)ccnc2N1" ?
output: 1.30

input: What log10 IC50 value was documented for this compound, N[C@@H]1[C@H]2Oc3ccc(Oc4ccnc5c4CCC(=O)N5)cc3[C@@H]12 [Intermediate I] ?
output: 3.45

input: What log10 IC50 value was documented for this compound, "CN1CCC(Oc2ccc(C(=O)N[C@@H]3[C@H]4Oc5ccc(Oc6ccnc7c6CCC(=O)N7)cc5[C@@H]34)cc2C(F)(F)F)CC1" ?
output: 1.15

input: What log10 IC50 value was documented for this compound, "C[C@@H]1CN(Cc2ccc(C(=O)N[C@@H]3[C@H]4Oc5ccc(Oc6ccnc7c6CCC(=O)N7)cc5[C@@H]34)cc2C(F)(F)F)C[C@H](C)O1" ?
output: 1.93

input: What log10 IC50 value was documented for this compound, CCN1CCN(Cc2ccc(C(=O)NC3C4Oc5c(C)cc(Oc6ccnc7c6CCC(=O)N7)cc5C34)cc2C(F)(F)F)CC1 (stereo not shown) ?
output: 1.26

input: What log10 IC50 value was documented for this compound, "CCN1CCN(Cc2cc(F)cc(C(=O)N[C@@H]3[C@H]4Oc5ccc(Oc6ccnc7c6CCC(=O)N7)cc5[C@@H]34)c2)CC1" ?
output: 0.23

input: What log10 IC50 value was documented for this compound, "CCN1CCN(Cc2ccc(C(=O)N[C@@H]3[C@H]4Oc5ccc(Oc6ccnc7c6CCC(=O)N7)cc5[C@@H]34)cc2Br)CC1" ?
output: 0.73

input: What log10 IC50 value was documented for this compound, "O=C1CCc2c(Oc3ccc4c(c3)[C@H]3[C@H](NC(=O)c5ccc(C(F)(F)F)cc5)[C@H]3O4)ccnc2N1" ?
output: 0.91

input: What log10 IC50 value was documented for this compound, "O=C1CCc2c(Oc3ccc4c(c3)[C@H]3[C@H](NC(=O)c5ccc(-c6ccccc6)o5)[C@H]3O4)ccnc2N1" ?
output: 0.69

input: What log10 IC50 value was documented for this compound, "CN1CCN(Cc2ccc(C(=O)N[C@H]3[C@@H]4Oc5ccc(Oc6ccnc7c6CCC(=O)N7)cc5[C@H]34)cc2C(F)(F)F)CC1" ?
output: 1.04

input: What log10 IC50 value was documented for this compound, "Cc1cc(C(=O)N[C@@H]2[C@H]3Oc4ccc(Oc5ccnc6c5CCC(=O)N6)cc4[C@@H]23)ccc1CO" ?
output: 0.00

input: What log10 IC50 value was documented for this compound, "CCN1CCC(=Cc2ccc(C(=O)N[C@@H]3[C@H]4Oc5ccc(Oc6ccnc7c6CCC(=O)N7)cc5[C@@H]34)cc2C(F)(F)F)CC1" ?
output: 1.32

input: What log10 IC50 value was documented for this compound, "CN(C)[C@H]1CCCN(Cc2ccc(C(=O)N[C@@H]3[C@H]4Oc5ccc(Oc6ccnc7c6CCC(=O)N7)cc5[C@@H]34)cc2C(F)(F)F)C1" ?
output: 1.11

input: What log10 IC50 value was documented for this compound, "O=C1CCc2c(Oc3ccc4c(c3)[C@H]3[C@H](NC(=O)c5ccc(CN6CCN7CCC[C@@H]7C6)c(C(F)(F)F)c5)[C@H]3O4)ccnc2N1" ?
output: 0.95

input: What log10 IC50 value was documented for this compound, "CCN1CCN(c2ccc(C(=O)N[C@@H]3[C@H]4Oc5ccc(Oc6ccnc7c6CCC(=O)N7)cc5[C@@H]34)cc2C(F)(F)F)CC1" ?
output: 1.04

input: What log10 IC50 value was documented for this compound, "CCN1CCN(Cc2ccc(C(=O)N[C@H]3[C@@H]4Oc5ccc(Oc6ccnc7c6CCC(=O)N7)cc5[C@H]34)cc2C(F)(F)F)CC1" ?
output: 1.20

---

target: EGFR L858R kinase domain (Homo sapiens (Human), UniProt P00533, L858R)
Sequence (P00533 669-1210 L858R): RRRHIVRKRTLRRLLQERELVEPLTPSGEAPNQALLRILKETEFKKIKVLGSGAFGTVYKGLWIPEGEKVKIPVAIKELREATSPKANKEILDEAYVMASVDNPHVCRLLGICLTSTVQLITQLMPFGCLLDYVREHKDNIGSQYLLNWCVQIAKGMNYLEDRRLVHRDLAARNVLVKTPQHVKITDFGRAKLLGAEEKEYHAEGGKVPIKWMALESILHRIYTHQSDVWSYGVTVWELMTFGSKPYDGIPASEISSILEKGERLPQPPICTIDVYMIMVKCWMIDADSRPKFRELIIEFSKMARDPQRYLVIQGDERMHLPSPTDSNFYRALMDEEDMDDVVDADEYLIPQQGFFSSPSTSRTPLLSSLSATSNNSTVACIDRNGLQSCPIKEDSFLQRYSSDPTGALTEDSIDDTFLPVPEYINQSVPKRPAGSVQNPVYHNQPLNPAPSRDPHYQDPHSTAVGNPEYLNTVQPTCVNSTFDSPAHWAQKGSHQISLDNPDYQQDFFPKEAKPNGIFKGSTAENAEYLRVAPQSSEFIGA
experiment_summary: EGFR enzymatic assay, TR-FRET, EGFR L858R
quantity_kind: IC50 (nM)
State just the number; it will be interpreted in nM.

input: What IC50 value was documented for this compound, O=C1CCc2c(Oc3ccc4c(c3)[C@H]3[C@H](NC(=O)c5ccc(CN6CCN(CC(F)(F)F)CC6)c(C(F)(F)F)c5)[C@H]3O4)ccnc2N1 [Compound 1.2] ?
output: 292

input: What IC50 value was documented for this compound, O=C1CCc2c(Oc3ccc4c(c3)[C@H]3[C@H](NC(=O)c5ccc(F)c(F)c5)[C@H]3O4)ccnc2N1 [Compound 1.41] ?
output: 29

input: What IC50 value was documented for this compound, CC(C)(C#N)c1cccc(C(=O)N[C@@H]2[C@H]3Oc4ccc(Oc5ccnc6c5CCC(=O)N6)cc4[C@@H]23)c1 [Compound 1.43] ?
output: 11

input: What IC50 value was documented for this compound, CCN1CCN(Cc2cc(C(=O)N[C@@H]3[C@H]4Oc5ccc(Oc6ccnc7c6CCC(=O)N7)cc5[C@@H]34)cc(C(F)(F)F)c2)CC1 [Compound 1.5] ?
output: 1

input: What IC50 value was documented for this compound, CCN1CCC(Cc2ccc(C(=O)N[C@@H]3[C@H]4Oc5ccc(Oc6ccnc7c6CCC(=O)N7)cc5[C@@H]34)cc2C(F)(F)F)CC1 [Compound 1.74] ?
output: 0.17

input: What IC50 value was documented for this compound, CN1CCN(Cc2ccc(C(=O)N[C@H]3[C@@H]4Oc5ccc(Oc6ccnc7c6CCC(=O)N7)cc5[C@H]34)cc2C(F)(F)F)CC1 [Compound 1.34] ?
output: 29
